// provenance: PubChem BioAssay (NCI)

Tested on: SK-MEL-5 melanoma
Test: NCI tumour cell line growth inhibition, 48 h
measure.name: TGI (µM)
Return type: number; implicit unit µM.

Any idea what its TGI is? The compound is `COc1cc(-c2ccc(-c3ccc(C(=N)N)s3)s2)cc(OC)c1OC`
2.88

Lookup `C=C1C(=O)O[C@H]2[C@H]1CC/C(Cn1cc(CCC)nn1)=C\CC[C@@]1(C)O[C@@H]21`
29.6

Try the compound COc1ccc2c(c1)CC[C@@H]1C2CC[C@]2(C)OC(=O)CCC12 (some centres not stated)
29.5

Further, for `CCOc1ccc(NC(=O)C2=C(C)NC(C)=C(C(=O)Nc3ccc(OCC)cc3)C2c2ccc([N+](=O)[O-])cc2)cc1` ?
74.3

// repeat for COc1ccc(OC)c2c1C[C@@H]1C(C#N)N3[C@H](Cc4c(OC)ccc(OC)c4[C@@H]3C)C(=O)N1[C@H]2C (some centres not stated) and report
3.25

Record: CC1=C(C(=O)Nc2ccc(F)c(Cl)c2)C(c2cccc(Cl)c2)NC(=O)N1 (configuration not stated)
26.9

Can you handle `CO/N=C1/c2cc(OC)ccc2-c2c(NOC)nc3ccccc3c21` next?
36

And then `COc1cc(O)c(C(=O)/C=C/c2ccc(O)cc2)cc1Oc1ccc(C(=O)/C=C/c2ccc(O)cc2)c(O)c1` , what is it?
4.19

Try the compound `CC(C)C[C@H](NC(=O)[C@@H](Cc1cccc2ccccc12)NC(=O)N1CCOCC1)B(O)O`
9.24

Similarly, `C[n+]1c2ccccc2c(NC2CCNCC2)c2[nH]c3ccccc3c21` ?
2.32

Now the same for `CCOC(=O)Cc1csc(/N=C\c2c(O)c3ccccc3oc2=O)n1`
52.6

###

Tested on: NCI-H226 lung
Assay: NCI tumour cell line growth inhibition, 48 h
For each entry below, report its TGI value.
Numbers only; they are read as µM.

Recorded TGI for `COC(=O)c1c(C)nc(C)c(N=O)c1-c1ccccc1C(F)(F)F` with NCI-H226 lung, please?
43.2

// repeat for `O=C(OCCOCCOC(=O)c1c[nH]cc1-c1ccccc1)c1c[nH]cc1-c1ccccc1` and report
48.9

And the next one, `COC(=O)c1ccc2c(c1)nc(-c1ccc(Cl)cc1)n2-c1cc(C(C)(C)C)[nH]n1` ?
44

Repeat for the following compound: `CSC(=S)N/N=C(\C)c1ccccn1`
3.45

Quick one: `COc1cc2c(/C=C3\C(=O)Nc4ccc(Br)cc43)c(Cl)n(C)c2cc1C`
6.18

Try this compound too: `CCOC(=O)c1ccc(N=C/C=C(\Nc2ccc(C(=O)OCC)cc2)c2ccc3ccccc3c2)cc1`
96.9

Next compound: `COc1ccc(N(C(=O)OC(C)(C)C)[C@@H]2C(C)=C[C@H]([S@@](=O)c3ccc(C)cc3)[C@@H]3C(=O)N(C)C(=O)[C@@H]32)cc1`
34.6

Quick one: `CCCNc1nc(-c2ccc(OC)cc2)nc2ccccc12`
41.9

Another: C=C1C(=O)OC2C(C)C3C=CC(=O)[C@@]3(C)C(OC(=O)/C(C)=C/C)C1[C@@H]2OC(C)=O (stereo partly drawn)
4.42

Same lookup for `O=c1[nH]c2ccc(CC(=S)N3CCN(c4ccccc4)CC3)cc2s1` , please.
69.6

Query CC1(c2cccc(C3CCC4(C=CC3=O)OCCO4)c2)OCCO1 (stereo not drawn) next
49.2

Likewise for `Cc1c2cc[n+](C)cc2c(C)c2c1[nH]c1ccc(O)cc12` ?
16.6

Cool, now COc1ccc(C(=O)Nc2cccc(C3CC(=O)c4c(cc(OC)c(OC)c4OC)O3)c2)cc1 (stereo not drawn)
43.1

// next record `C=C1C(=O)O[C@H]2[C@H]1CC/C(Cn1cc(CCC)nn1)=C\CC[C@@]1(C)O[C@@H]21`
33.4

Param item: C/C=C/C1(NS(=O)(=O)c2ccc(C)cc2)CCC(C(C)(C)C)CC1 (stereo not drawn)
44.4

Repeat with `COc1cc(/C=C/C(=O)c2ccc(Nc3nc(Nc4ccc(F)cc4)nc(Nc4ccc(F)cc4)n3)cc2)cc(OC)c1OC`
29.3
